We begin with a simple list: items and their reported CC50 at 4 days.
# Protocol: Compound cytotoxicity, XTT-based colorimetric assay
# Assay type: cell-based
# Conditions Used: human; uninfected MT2 cells, day 4, XTT; read-out: CC50
# Description: Compound cytotoxicity and the corresponding CC50 values were determined using the same protocol as described in the antiviral assay except that uninfected cells were used. Cytotoxicity was assessed on day 4 in uninfected MT2 cells by using an XTT (2,3-bis[2-Methoxy-4-nitro-5-sulfophenyl]-2H-tetrazolium-5-carboxyanilide inner salt)-based colorimetric assay (Sigma-Aldrich, St Louis, Mo).

Molecule: Cc1cc(C2CCC(F)(F)CC2)nc2nc([C@H](Cc3cc(F)cc(F)c3)NC(=O)Cn3nc(C4CC4)c4c3C[C@@H]3C[C@H]43)n(-c3ccc(Cl)c4c(NS(C)(=O)=O)nn(CC(=O)N5CC(C)(C)OC(C)(C)C5)c34)c(=O)c12 (atropisomer, axis not shown; (P))
CC50 at 4 days: > 0.02 µM
//
Molecule: COCCCn1nc(NS(C)(=O)=O)c2c(Cl)ccc(-n3c([C@H](Cc4cc(F)cc(F)c4)NC(=O)Cn4nc(C(F)F)c5c4C(F)(F)[C@@H]4C[C@H]54)nc4nc(C5CCC(F)(F)CC5)cc(CN5CCC(F)(F)CC5)c4c3=O)c21 (atropisomer, axis not shown; (P))
CC50 at 4 days: > 0.02 µM
//
Molecule: CS(=O)(=O)Nc1nn(CCN2CC[C@H](F)C2)c2c(-n3c([C@H](Cc4cc(F)cc(F)c4)NC(=O)Cn4nc(C(F)F)c5c4C(F)(F)[C@@H]4C[C@H]54)nc4nc(C5CCC(F)(F)CC5)ccc4c3=O)ccc(Cl)c12 (atropisomer, axis not shown; (P))
CC50 at 4 days: > 0.05 µM
//
Molecule: Cc1cc(C2(F)CCC(F)(F)CC2)nc2nc([C@H](Cc3cc(F)cc(F)c3)NC(=O)Cn3nc(C4CC4)c4c3C[C@@H]3C[C@H]43)n(-c3ccc(Cl)c4c(NS(C)(=O)=O)nn([C@@H](C)CN5C[C@H](F)C[C@H](F)C5)c34)c(=O)c12 (relative stereo)
CC50 at 4 days: > 0.02 µM
//
Molecule: Cc1cc(C2CCC(F)(F)CC2)nc2nc([C@H](Cc3cc(F)cc(F)c3)NC(=O)Cn3nc(C4CC4)c4c3C[C@@H]3C[C@H]43)n(-c3ccc(Cl)c4c(NS(C)(=O)=O)nn(CCN5C[C@H]6C[C@@H]5CO6)c34)c(=O)c12 (atropisomer, axis not shown; (P))
CC50 at 4 days: > 0.05 µM
//
Molecule: Cc1cc(C2CCC(F)(F)CC2)nc2nc([C@H](Cc3cc(F)cc(F)c3)NC(=O)Cn3nc(C(F)F)c4c3C(F)(F)[C@@H]3C[C@H]43)n(-c3ccc(Cl)c4c(NS(C)(=O)=O)nn(CCN5CC(C(F)F)C5)c34)c(=O)c12 (atropisomer, axis not shown; (P))
CC50 at 4 days: > 0.05 µM
//
Molecule: COCCOCCn1nc(NS(C)(=O)=O)c2c(Cl)ccc(-n3c([C@H](Cc4cc(F)cc(F)c4)NC(=O)Cn4nc(C5CC5)c5c4C[C@@H]4C[C@H]54)nc4nc(C5CCC(F)(F)CC5)ccc4c3=O)c21 (atropisomer, axis not shown; (P))
CC50 at 4 days: > 0.05 µM
